# TEST_METHOD_NOTES: in vitro
# MEASUREMENT_CONDITIONS: hamster, hepatocytes, CLint (hamster hepatocytes, compound/ritonavir 1:1)
METRIC_NAME: hepatocyte CLint at 1 µM (µL/min/1e6 cells)

1. COc1cccc2[nH]c(C(=O)N[C@@H](Cc3cccc(F)c3)C(=O)N[C@@H](C[C@@H]3CCNC3=O)C(=O)COc3c(F)c(F)c(C(C)O)c(F)c3F)cc12 (some centres unmarked): 22.6
2. CC(C)(O)c1c(F)c(F)c(OCC(=O)[C@H](C[C@@H]2CCNC2=O)NC(=O)[C@@H]2[C@@H]3[C@H](CN2C(=O)[C@@H](NC(=O)C(F)(F)F)C(C)(C)C)C3(C)C)c(F)c1F: 9.3
3. COc1cccc2[nH]c(C(=O)N[C@@H](Cc3cccc(F)c3)C(=O)N[C@@H](C[C@@H]3CCNC3=O)C(=O)COc3c(F)c(F)c(C(C)(C)O)c(F)c3F)cc12: 16.4
4. CC(C)(C)[C@H](NC(=O)C(F)(F)F)C(=O)N1C[C@H]2[C@@H]([C@H]1C(=O)N[C@@H](C[C@@H]1CCNC1=O)C(=O)COc1c(F)c(F)c(CO)c(F)c1F)C2(C)C: 12.5
5. COc1cccc2[nH]c(C(=O)N[C@@H](Cc3cccc(F)c3)C(=O)N[C@@H](C[C@@H]3CCNC3=O)C(=O)COc3c(F)c(F)c(CO)c(F)c3F)cc12: 31.4

###

# TEST_METHOD_NOTES: in vitro
# MEASUREMENT_CONDITIONS: mouse, plasma, mouse plasma protein binding, fraction bound (Fb)
METRIC_NAME: fraction unbound at 3 h, 800 µM

1. COc1cccc2[nH]c(C(=O)N[C@@H](Cc3cccc(F)c3)C(=O)N[C@@H](CCn3cn[nH]c3=O)C(=O)COc3c(F)c(F)c(C(C)(C)O)c(F)c3F)cc12: 0.0031

###

Recorded logD at 1 h by entry
# TEST_METHOD_NOTES: physchem
# MEASUREMENT_CONDITIONS: pH 7.4
METRIC_NAME: logD at 1 h

1) COc1cccc2[nH]c(C(=O)N[C@@H](Cc3cccc(F)c3)C(=O)N[C@@H](C[C@@H]3CC(=O)NC3=O)C(=O)COc3c(F)c(F)c(C(C)(C)O)c(F)c3F)cc12: 2.03
2) COc1cccc2[nH]c(C(=O)N[C@@H](Cc3cccc(F)c3)C(=O)N[C@@H](C[C@@H]3CCNC3=O)C(=O)COc3c(F)c(F)c(C(C)O)c(F)c3F)cc12 (stereo partly drawn): 3.26
3) CC(C)(O)c1c(F)c(F)c(OCC(=O)[C@H](C[C@@H]2CCNC2=O)NC(=O)[C@@H]2[C@@H]3[C@H](CN2C(=O)[C@@H](NC(=O)C(F)(F)F)C(C)(C)C)C3(C)C)c(F)c1F: 2.52

###

Each entry below carries its recorded pIC50 (hamster CTSL).
# SYSTEM: hamster CTSL (Mesocricetus auratus)
# Sequence (Q812A7 entry or part of it): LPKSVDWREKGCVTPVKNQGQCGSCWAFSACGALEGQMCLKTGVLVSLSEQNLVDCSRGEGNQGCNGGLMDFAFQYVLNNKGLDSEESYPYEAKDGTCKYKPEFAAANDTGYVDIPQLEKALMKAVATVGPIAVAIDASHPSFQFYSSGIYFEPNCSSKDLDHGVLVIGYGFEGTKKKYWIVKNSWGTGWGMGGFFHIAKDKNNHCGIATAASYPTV
# TEST_METHOD_NOTES: hamster CTSL biochemical assay
METRIC_NAME: pIC50 (hamster CTSL)

1) COc1cccc2[nH]c(C(=O)N[C@@H](Cc3cccc(F)c3)C(=O)N[C@@H](C[C@@H]3CCNC3=O)C(=O)COc3c(F)c(F)c(C(C)O)c(F)c3F)cc12 (stereo partly shown) [compound 8]: 7.92 ± 0.18
2) CC(C)(O)c1c(F)c(F)c(OCC(=O)[C@H](C[C@@H]2CCNC2=O)NC(=O)[C@@H]2[C@@H]3[C@H](CN2C(=O)[C@@H](NC(=O)C(F)(F)F)C(C)(C)C)C3(C)C)c(F)c1F [compound 14]: 4.67 ± 0.33
3) COc1cccc2[nH]c(C(=O)N[C@@H](Cc3cccc(F)c3)C(=O)N[C@@H](C[C@@H]3CCNC3=O)C(=O)COc3c(F)c(F)c(CO)c(F)c3F)cc12 [compound 1]: 8.34 ± 0.09
4) CC(C)(C)[C@H](NC(=O)C(F)(F)F)C(=O)N1C[C@H]2[C@@H]([C@H]1C(=O)N[C@@H](C[C@@H]1CCNC1=O)C(=O)COc1c(F)c(F)c(CO)c(F)c1F)C2(C)C [compound 7]: 5.07 ± 0.10
